- Test system: murine neural precursor cells (neurosphere cultures)
- Assay Explanation: HTS of LOPAC library against secondary neurosphere cultures, MTT proliferation assay at 3 μM, day 7 (z score, P value)
- Assay type: cell-based, mouse
Observed Property: Z score
Answers are plain numbers.

Fill in Z score for each of the 2 molecules listed.
1. O=C(O)/C(=C/c1c(C(=O)O)[nH]c2cc(Cl)cc(Cl)c12)c1ccccc1
2. CN(C)CCC(c1ccc(Cl)cc1)c1ccccn1.O=C(O)/C=C\C(=O)O (racemic) [(±)-Chlorpheniramine maleate]

2.565
−2.116

Hi team, please reply with Z score for each item in this list.
1. Cl.NO [Hydroxylamine hydrochloride]
2. COc1cc2c(c(OC)c1OC)-c1ccc(OC)c(=O)cc1[C@@H](NC(C)=O)CC2
3. Cl.Cl.NCCCCN [Putrescine dihydrochloride]
4. C[C@H](CCC(=O)NCCS(=O)(=O)O)[C@H]1CC[C@H]2[C@@H]3[C@H](O)C[C@@H]4C[C@H](O)CC[C@]4(C)[C@H]3C[C@H](O)[C@]12C [Sodium Taurocholate]

1.635
−10.753
−0.769
−0.760

====

- Test system: murine neural precursor cells (neurosphere cultures)
- Assay Explanation: HTS of LOPAC library against secondary neurosphere cultures, MTT proliferation assay at 3 μM, day 7 (z score, P value)
- Assay type: cell-based, mouse
- Applied Conditions: 168 h, 3 µM
Structures can show the parent of a compound that is named as a salt.
Observed Property: Z Score
Numbers only.

Below, 3 compounds whose answers are already recorded.
Compound	Recorded Number
Cl.NCCCCNS(=O)(=O)c1ccc2c(Cl)cccc2c1	−0.9229
Clc1ccc2c(c1)C(N1CCNCC1)=Nc1ccccc1O2	−1.041
CN1CCN(CC/C=C2/c3ccccc3Sc3ccc(S(=O)(=O)N(C)C)cc32)CC1 [Thiothixene hydrochloride]	−1.899

Could you tell me Z Score for each of these compounds? They are listed below.
1. O=C(CCc1ccc(O)cc1)c1c(O)cc(O)cc1O
2. CC(C)C[C@H](NP(=O)(O)O[C@@H]1O[C@@H](C)[C@H](O)[C@@H](O)[C@H]1O)C(=O)N[C@@H](Cc1c[nH]c2ccccc12)C(=O)O [Phosphoramidon disodium]

1. 0.9165
2. −0.5097

====

- Test system: murine neural precursor cells (neurosphere cultures)
- Assay Explanation: HTS of LOPAC library against secondary neurosphere cultures, MTT proliferation assay at 3 μM, day 7 (z score, P value)
- Type: cell-based, mouse
- Applied Conditions: LOPAC primary screen, neurosphere MTT proliferation, 3 μM, day 7
Where a name gives a salt, the structure may show the parent alone.
Observed Property: Z score
Give bare numbers.

Molecule	Z score
CC(=O)OCC1=C(C(=O)O)N2C(=O)[C@@H](NC(=O)CSc3ccncc3)[C@H]2SC1 [Cephapirin sodium]	0.622
CCC(=O)c1ccc2c(c1)N(CCCN(C)C)c1ccccc1S2 [Propionylpromazine hydrochloride]	−1.584
Cc1c(OCC(F)(F)F)ccnc1C[S+]([O-])c1nc2ccccc2[nH]1 (stereo not shown)	−0.034
CC(C)N(CCC(=O)c1ccc2ccccc2c1)Cc1ccccc1 [ZM 39923 hydrochloride]	0.746
CN1CCN2c3ccccc3Cc3ccccc3C2C1 (stereo not shown) [Mianserin hydrochloride]	0.975
COC(=O)[C@H](NC(=O)c1cc(-c2ccccc2)nc2ccccc12)c1ccccc1	1.359
COc1cc(C=C(C#N)C#N)cc(O)c1O	−2.319
CCOC(=O)C1=C(C)NC(C)=C(C(=O)OC)C1c1cccc([N+](=O)[O-])c1 (stereo not shown)	−1.610

// input: 2 molecules below; output: Z score for each
1. CN1C[C@@H](NS(=O)(=O)N(C)C)C[C@@H]2c3cccc4c3c(cn4C)C[C@H]21 [Mesulergine hydrochloride]
2. CCCN(CCc1ccccc1)C1CCc2c(O)cccc2C1.Cl (racemic) [(±)-PPHT hydrochloride]

1: −2.160; 2: −1.915
